- assay-details: Solubility of protected phosphoramidites in acetonitrile (aliquots added until a clear solution)
- Format: physicochemical
- experimental-context: 30° C.
- Protocol: A range of 5′-O-Dmtr-nucleoside-3′-O-(cyanoethyl-N, N-diisopropyl) phosphoramidites (FIG. 1. compounds 1-5) were studied to determine their suitability for solution-phase oligonucleotide synthesis in acetonitrile. Each compound (ca. 0.5 g) was placed in a flask with a magnetic stirrer immersed in an oil bath held at 30° C. […] The volume of acetonitrile required to establish a clear solution was recorded. The solubility so determined is recorded in Table 1.
measurement-label: Solubility (mM)
Numbers only, in mM.

# count of solved cases: 6
{"molecule": "COc1ccc(C(OCC2OC(n3cnc4c(NC(=O)c5ccccc5)ncnc43)C(OC)C2OP(OCCC#N)N(C(C)C)C(C)C)(c2ccccc2)c2ccc(OC)cc2)cc1 (stereo not drawn) [Compound 4]", "result": 1210}
{"molecule": "COc1ccc(C(OCC2OC(n3cc(C)c(=O)[nH]c3=O)CC2OP(OCCC#N)N(C(C)C)C(C)C)(c2ccccc2)c2ccc(OC)cc2)cc1 (stereo not drawn) [Compound 2a]", "result": 1160}
{"molecule": "COc1ccc(C(OC[C@H]2O[C@@H](n3cc(C)c(=O)n(C(=O)c4ccccc4)c3=O)C[C@@H]2OP(OCCC#N)N(C(C)C)C(C)C)(c2ccccc2)c2ccc(OC)cc2)cc1 (stereo partly drawn) [Compound 2b]", "result": 1530}
{"molecule": "COc1ccc(C(OC[C@H]2O[C@@H](n3ccc(NC(C)=O)nc3=O)[C@H](OC)[C@@H]2OP(OCCC#N)N(C(C)C)C(C)C)(c2ccccc2)c2ccc(OC)cc2)cc1 (stereo partly drawn) [Compound 3]", "result": 1300}
{"molecule": "COc1ccc(C(OCC2OC(n3cnc4c(=O)[nH]c(NC(=O)C(C)C)nc43)C(OC)C2OP(OCCC#N)N(C(C)C)C(C)C)(c2ccccc2)c2ccc(OC)cc2)cc1 (stereo not drawn) [Compound 5]", "result": 1280}
{"molecule": "COc1ccc(C(OC[C@H]2O[C@@H](n3ccc(=O)n(C(=O)c4ccccc4)c3=O)[C@H](OC)[C@@H]2OP(OCCC#N)N(C(C)C)C(C)C)(c2ccccc2)c2ccc(OC)cc2)cc1 (stereo partly drawn) [Compound 1b]", "result": 1920}

Hi, could you look up Solubility for each item in my list?
1. COc1ccc(C(=O)n2c(=O)ccn(C3OC(COC(c4ccccc4)(c4ccc(OC)cc4)c4ccc(OC)cc4)C(OP(OCCC#N)N(C(C)C)C(C)C)C3OC)c2=O)cc1 (stereo not drawn) [Compound 1d]
2. COc1ccc(C(OC[C@H]2O[C@@H](n3ccc(=O)[nH]c3=O)[C@H](OC)[C@@H]2OP(OCCC#N)N(C(C)C)C(C)C)(c2ccccc2)c2ccc(OC)cc2)cc1 (stereo partly drawn) [Compound 1a]
3. COc1ccc(C(OCC2OC(n3ccc(=O)n(C(=O)c4ccc(C(C)(C)C)cc4)c3=O)C(OC)C2OP(OCCC#N)N(C(C)C)C(C)C)(c2ccccc2)c2ccc(OC)cc2)cc1 (stereo not drawn) [Compound 1c]

Result ::
1: 2420; 2: 70; 3: 1740

Values were extracted from patent US20260209262A1.
